Values were extracted from PubChem BioAssay (EPA / NIEHS).

# Read-out: Glutamate-cysteine ligase regulatory (GCLM), GCLM (gene 2730)
# assay_text: LTEA_HepaRG_GCLM: Life Technologies and Expression Analysis (LTEA) Assay for Glutamate-cysteine ligase regulatory (GCLM) using HepaRG (AID 2283500)
# applied_conditions: mRNA level, 48 h; actives raise or lower the signal
Calls of active or inactive are those of the source. Rule for the calls: active = hit-call score of the fitted dose curve at least 0.9, where 1 is the maximum; inactive = score below 0.9.
Allowed answers: TRUE = active, FALSE = inactive

Recorded results for 6 molecules are shown here.
1. OCCNCCO: FALSE
2. C[C@]12C=CC(=O)C=C1CC[C@H]1[C@@H]3C[C@@H](O)[C@](O)(C(=O)CO)[C@@]3(C)C[C@H](O)[C@@]12F: FALSE
3. O=C(NO)C1(NS(=O)(=O)c2ccc(Oc3ccc(F)cc3)cc2)CCOCC1: FALSE
4. CC1(C)C(=O)N(Cl)C(=O)N1Cl: FALSE
5. O=C1CN(N=Cc2ccc([N+](=O)[O-])o2)C(=O)N1: TRUE
6. OCC(CO)(CO)CO: FALSE

Record request — test call for Cc1nccn1-c1ccc(Sc2cccc(C3(C(N)=O)CCOCC3)c2)cc1
TRUE

Record request — test call for O=S1(=O)CCCO1
FALSE

Record request — test call for Cn1c(=O)c2[nH]cnc2n(C)c1=O
FALSE

Record request — test call for CCOc1ccc2[nH]cc(C(=O)NCc3ccccc3)c(=O)c2n1
FALSE

Record request — test call for CCCc1ccccc1
FALSE

Record request — test call for COS(C)(=O)=O
FALSE

Record request — test call for CCCCCCOC(=O)CC(CC(=O)OCCCCCC)(OC(=O)CCC)C(=O)OCCCCCC
FALSE
